Can you tell me UNIT DOSE (2mg/kg IV) | (+)CsA for the items I'm about to list?
# assayExplanation: BUI#77: IN VIVO: IV BRAIN LEVELS @ 1 HOUR post 1 mL x 1 min IV
# Description: Table printed on a drawing sheet, Fig. 1 Title: BUI#77: IN VIVO: IV BRAIN LEVELS @ 1 HOUR post 1 mL x 1 min IV The patent's description of the figure: FIG. 1 is a table depicting the results from a brain uptake assay. First reader's note: Rows with only a Structure cell (l-v-f-f-a, TFA. l-v-f-f-l, TFA. l-f-f-v-l) are bold group headings for the rows below them; the asterisk printed in the gap before the UNIT DOSE block is kept in its own unheaded column.
Structures can show the parent of a compound that is named as a salt.
Kindly answer with a numeric value in nM, unit omitted.

Ask | Form field: reported UNIT DOSE (2mg/kg IV) | (+)CsA of CC(C)C[C@@H](N)C(=O)N[C@@H](C(=O)N[C@H](Cc1ccccc1)C(=O)N[C@H](Cc1ccccc1)C(=O)N[C@H](C)C(N)=O)C(C)C [655 | 655, TFA. H-(lvffa)-NH2]
Reply | 22

Ask | Form field: reported UNIT DOSE (2mg/kg IV) | (+)CsA of CN[C@H](CC(C)C)C(=O)N[C@@H](C(=O)N[C@H](Cc1ccccc1)C(=O)N[C@H](Cc1ccccc1)C(=O)N[C@H](C)C(N)=O)C(C)C [1019 | 1019, TFA. N-methyl-(lvffa)-NH2]
Reply | 17

Ask | Form field: reported UNIT DOSE (2mg/kg IV) | (+)CsA of CC(C)C[C@@H](N)C(=O)N[C@H](Cc1ccccc1)C(=O)N[C@H](Cc1ccccc1)C(=O)N[C@@H](C(=O)N[C@H](CC(C)C)C(N)=O)C(C)C [578 | 578, TFA. H-(lffvl)-NH2]
Reply | 16

Ask | Form field: reported UNIT DOSE (2mg/kg IV) | (+)CsA of CC(C)C[C@@H](N)C(=O)N[C@H](Cc1c(F)c(F)c(F)c(F)c1F)C(=O)N[C@H](Cc1ccccc1)C(=O)N[C@@H](C(=O)N[C@H](CC(C)C)C(N)=O)C(C)C [PPI-1324, TFA.H-(l-[F5]f-fvl)-NH2]
Reply | 9
